These data points were gathered from patent US11945816B2.

# target-or-test-system: EGFR InsSVD (D770_N771insSVD) transformed Ba/F3 cells (Homo sapiens, UniProt P00533, INS770SVD)
# Sequence (P00533 with tags, fused parts or gaps INS770SVD): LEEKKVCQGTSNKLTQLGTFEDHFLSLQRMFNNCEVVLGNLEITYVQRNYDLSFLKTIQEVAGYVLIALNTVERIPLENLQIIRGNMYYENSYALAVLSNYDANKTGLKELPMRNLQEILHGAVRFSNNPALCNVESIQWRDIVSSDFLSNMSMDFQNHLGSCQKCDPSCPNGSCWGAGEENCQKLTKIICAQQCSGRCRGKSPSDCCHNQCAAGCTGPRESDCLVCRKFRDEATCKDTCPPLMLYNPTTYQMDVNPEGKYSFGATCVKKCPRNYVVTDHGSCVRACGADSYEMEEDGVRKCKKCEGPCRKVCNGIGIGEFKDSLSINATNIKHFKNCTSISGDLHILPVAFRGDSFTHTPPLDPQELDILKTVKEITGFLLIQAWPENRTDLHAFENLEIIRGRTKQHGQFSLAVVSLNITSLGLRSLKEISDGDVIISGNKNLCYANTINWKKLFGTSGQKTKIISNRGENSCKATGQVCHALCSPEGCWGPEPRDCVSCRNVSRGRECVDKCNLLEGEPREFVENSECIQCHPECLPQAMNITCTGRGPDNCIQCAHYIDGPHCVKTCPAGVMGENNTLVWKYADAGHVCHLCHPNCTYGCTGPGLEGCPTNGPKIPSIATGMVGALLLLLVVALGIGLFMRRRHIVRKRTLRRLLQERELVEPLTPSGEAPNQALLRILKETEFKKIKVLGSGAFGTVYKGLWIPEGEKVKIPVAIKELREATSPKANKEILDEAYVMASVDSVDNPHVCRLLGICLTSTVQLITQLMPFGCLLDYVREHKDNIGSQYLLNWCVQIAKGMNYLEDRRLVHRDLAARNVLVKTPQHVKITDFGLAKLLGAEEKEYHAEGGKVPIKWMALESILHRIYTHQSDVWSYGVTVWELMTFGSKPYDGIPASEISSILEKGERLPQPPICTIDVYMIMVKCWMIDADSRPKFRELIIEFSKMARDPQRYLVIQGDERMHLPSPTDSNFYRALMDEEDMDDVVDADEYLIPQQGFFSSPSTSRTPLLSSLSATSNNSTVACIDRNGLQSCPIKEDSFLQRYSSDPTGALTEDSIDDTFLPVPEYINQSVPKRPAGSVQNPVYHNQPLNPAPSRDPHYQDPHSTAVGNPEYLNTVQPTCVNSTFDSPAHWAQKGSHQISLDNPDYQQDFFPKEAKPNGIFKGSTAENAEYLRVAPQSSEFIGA
# experiment-description: Proliferation inhibition assay, EGFR InsSVD transformed Ba/F3 cells
# condition: MTS assay, 72 hours
pEC50: −log10 of the molar value.
reported-property: pEC50

[
  {
    "compound": "C=CC(=O)Nc1cc(Nc2ncc3cc(Oc4c(F)cc(F)cc4F)c(=O)n(C)c3n2)c(OC)cc1N(C)CCN(C)C",
    "reported-property": "pEC50",
    "result": "> 6.70"
  },
  {
    "compound": "C=CC(=O)Nc1cccc(-n2c(=O)c(Oc3ccc(F)cc3F)cc3cnc(Nc4cn(C)nc4OCC)nc32)c1",
    "reported-property": "pEC50",
    "result": "> 6.70"
  },
  {
    "compound": "C=CC(=O)Nc1cc(Nc2ncc3cc(Oc4cc(F)c(F)cc4F)c(=O)n(C)c3n2)c(OC)cc1N(C)CCN(C)C",
    "reported-property": "pEC50",
    "result": "> 6.70"
  },
  {
    "compound": "C=CC(=O)N1C[C@H](Cn2c(=O)c(Oc3ccc(F)cc3F)cc3cnc(Nc4cnn(C)c4)nc32)[C@@H](OC)C1",
    "reported-property": "pEC50",
    "result": "> 6.70"
  },
  {
    "compound": "C=CC(=O)Nc1cccc(-n2c(=O)c(Oc3ccc(F)cc3)cc3cnc(Nc4cnn(C)c4)nc32)c1",
    "reported-property": "pEC50",
    "result": "> 6.70"
  },
  {
    "compound": "C=CC(=O)Nc1cc(Nc2ncc3cc(Oc4ccc(F)cc4F)c(=O)n(C)c3n2)c(OC)cc1N(C)CCN(C)C",
    "reported-property": "pEC50",
    "result": "> 6.70"
  },
  {
    "compound": "C=CC(=O)Nc1cc(Nc2ncc3cc(Oc4ccc(F)cc4)c(=O)n(C)c3n2)c(OC)cc1N(C)CCN(C)C",
    "reported-property": "pEC50",
    "result": "> 6.70"
  },
  {
    "compound": "C=CC(=O)Nc1cccc(-n2c(=O)c(Oc3ccc(F)cc3F)cc3cnc(Nc4cnn(C(F)F)c4)nc32)c1",
    "reported-property": "pEC50",
    "result": "> 6.70"
  },
  {
    "compound": "C=CC(=O)NC1CCCC(n2c(=O)c(Oc3ccc(F)cc3F)cc3cnc(Nc4cnn(C)c4)nc32)C1 (stereo not shown)",
    "reported-property": "pEC50",
    "result": "> 6.70"
  },
  {
    "compound": "C=CC(=O)Nc1cc(Nc2ncc3cc(Oc4ccc(F)cc4F)c(=O)n(C)c3n2)ncc1N(C)CCN(C)C",
    "reported-property": "pEC50",
    "result": "< 6.00"
  },
  {
    "compound": "C=CC(=O)Nc1cc(Nc2ncc3cc(Oc4ccc(F)cc4)c(=O)n(C)c3n2)ccc1N(C)CCN(C)C",
    "reported-property": "pEC50",
    "result": "6.22 to 6.70"
  },
  {
    "compound": "C=CC(=O)Nc1cc(Nc2ncc3cc(Oc4ccc(F)cc4Cl)c(=O)n(C)c3n2)c(OC)cc1N(C)CCN(C)C",
    "reported-property": "pEC50",
    "result": "> 6.70"
  },
  {
    "compound": "C=CC(=O)Nc1cccc(-n2c(=O)c(Oc3cc(F)c(F)cc3F)cc3cnc(Nc4cnn(C)c4)nc32)c1",
    "reported-property": "pEC50",
    "result": "> 6.70"
  },
  {
    "compound": "C=CC(=O)Nc1cc(Nc2ncc3cc(Oc4ccccc4)c(=O)n(C)c3n2)c(OC)cc1N(C)CCN(C)C",
    "reported-property": "pEC50",
    "result": "> 6.70"
  },
  {
    "compound": "CC#CC(=O)Nc1cc(Nc2ncc3cc(Oc4ccc(F)cc4F)c(=O)n(C)c3n2)c(OC)cc1N(C)CCN(C)C",
    "reported-property": "pEC50",
    "result": "> 6.70"
  },
  {
    "compound": "C=CC(=O)N1CCC(Cn2c(=O)c(Oc3ccc(F)cc3F)cc3cnc(Nc4cnn(C)c4)nc32)C1 (stereo not shown)",
    "reported-property": "pEC50",
    "result": "> 6.70"
  }
]
